As shown below, each of these compounds has a reported Ratio value.
Molecular target: NAD(P)H dehydrogenase [quinone] 1 (Homo sapiens) (UniProt P15559)
Sequence (P15559 whole entry): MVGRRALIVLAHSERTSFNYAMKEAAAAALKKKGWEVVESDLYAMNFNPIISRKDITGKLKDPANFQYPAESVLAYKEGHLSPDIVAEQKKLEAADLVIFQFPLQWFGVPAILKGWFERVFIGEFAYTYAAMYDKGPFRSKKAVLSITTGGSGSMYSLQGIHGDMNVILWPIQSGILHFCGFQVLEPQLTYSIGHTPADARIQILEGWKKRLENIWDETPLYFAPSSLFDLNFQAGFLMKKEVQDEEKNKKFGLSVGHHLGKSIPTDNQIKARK
Test: Ratio of Kcat and Km
I only need the number, thanks.

NP(=O)(OCC1=CC(=O)c2ccccc2C1=O)N(CCCl)CCCl (stereo unspecified)    2
CSC1=C(COP(N)(=O)N(CCCl)CCCl)C(=O)c2ccccc2C1=O (stereo unspecified)    1.2
CC1=C(COP(N)(=O)N(CCCl)CCCl)C(=O)c2ccccc2C1=O (stereo unspecified)    8.6
CN(CCCl)P(=O)(OCC1=CC(=O)c2ccccc2C1=O)N(C)CCCl    1.4
Cn1c(COP(N)(=O)N(CCBr)CCBr)nc2c1C(=O)C=CC2=O (stereo unspecified)    3.1
CC1=C(COP(N)(=O)N(CCBr)CCBr)C(=O)c2ccccc2C1=O (stereo unspecified)    9.1
Cn1c(COP(N)(=O)N(CCCl)CCCl)nc2c1C(=O)C=CC2=O (stereo unspecified)    4.5
CN(CCBr)P(=O)(OCC1=CC(=O)c2ccccc2C1=O)N(C)CCBr    1.3
CC(=O)OCC1=CC(=O)c2ccccc2C1=O    1.6
NP(=O)(OCC1=CC(=O)c2ccccc2C1=O)N1CCOCC1 (stereo unspecified)    0.16

// moving on: another record for Ratio
Data point: O=C1C=C(COP(=O)(NCCCl)NCCCl)C(=O)c2ccccc21 ; Ratio = 2.3

* * *

Target: NAD(P)H dehydrogenase [quinone] 1 (Homo sapiens) (UniProt P15559)
Test: Kinetic analysis using purified human DT-diaphorase.
# note: boundary value 90 s⁻¹ maps to N; k cat below it maps to Y

Solved entries:
Cn1c(COP(N)(=O)N(CCBr)CCBr)nc2c1C(=O)C=CC2=O (stereo not given)    Y
CSC1=C(COP(N)(=O)N(CCCl)CCCl)C(=O)c2ccccc2C1=O (stereo not given)    Y
NP(=O)(OCC1=C(Br)C(=O)c2ccccc2C1=O)N(CCCl)CCCl (stereo not given)    N

k cat under 90 s⁻¹? Item: CC1=C(COP(N)(=O)N(CCCl)CCCl)C(=O)c2ccccc2C1=O (stereo not given)
Y

State whether 90 s⁻¹ exceeds k cat recorded for CN(CCCl)P(=O)(OCC1=CC(=O)c2ccccc2C1=O)N(C)CCCl .
N

Strictly below 90 s⁻¹: is that where k cat of Cn1c(COP(N)(=O)N(CCCl)CCCl)nc2c1C(=O)C=CC2=O (stereo not given) sits?
Y

* * *

Target: NAD(P)H dehydrogenase [quinone] 1 (Homo sapiens)
Assay: Ratio of Kcat and Km
Below, each entry is listed with its recorded Ratio.
Lab note: jot the number down without any unit.

NP(=O)(OCC1=CC(=O)c2ccccc2C1=O)N(CCBr)CCBr (centres undefined)    2.2
NP(=O)(OCC1=C(Br)C(=O)c2ccccc2C1=O)N(CCCl)CCCl (centres undefined)    3
CC1=CC(=O)c2ccccc2C1=O    5.8

Turning to the following molecule.
GET /value?item= CC1=C(COP(=O)(N(C)CCBr)N(C)CCBr)C(=O)c2ccccc2C1=O &field=Ratio returns 0.5

* * *

Recorded Ratio for the following molecules
Target: NAD(P)H dehydrogenase [quinone] 1 (Homo sapiens) (UniProt P15559)
Assay: Ratio of Vmax and Km
Parameters: unit not given here
API note: the answer field is a bare number with no unit suffix.

CC1=CC(=O)c2ccccc2C1=O    0.5

The reported Ratio of the molecule CN(CCBr)P(=O)(OCC1=CC(=O)c2ccccc2C1=O)N(C)CCBr was 1.1

CC1=C(COP(=O)(N(C)CCBr)N(C)CCBr)C(=O)c2ccccc2C1=O yielded Ratio of 0.44

The value of Ratio measured for the molecule NP(=O)(OCC1=C(Br)C(=O)c2ccccc2C1=O)N(CCCl)CCCl (stereo unspecified) turned out to be 2.7

Please fill in: Ratio reported for NP(=O)(OCC1=CC(=O)c2ccccc2C1=O)N(CCCl)CCCl (stereo unspecified) = 1.8

Ratio in this record for CC1=C(COP(N)(=O)N(CCBr)CCBr)C(=O)c2ccccc2C1=O (stereo unspecified) : 0.81

Recorded result, Cn1c(COP(N)(=O)N(CCBr)CCBr)nc2c1C(=O)C=CC2=O (stereo unspecified) , Ratio: 0.28

For this molecule ( CC1=C(COP(N)(=O)N(CCCl)CCCl)C(=O)c2ccccc2C1=O (stereo unspecified) ), measured Ratio is 0.76

// recorded Ratio for CSC1=C(COP(N)(=O)N(CCCl)CCCl)C(=O)c2ccccc2C1=O (stereo unspecified) : 1.1

Documented Ratio of CN(CCCl)P(=O)(OCC1=CC(=O)c2ccccc2C1=O)N(C)CCCl : 1.2

The molecule listed as Cn1c(COP(N)(=O)N(CCCl)CCCl)nc2c1C(=O)C=CC2=O (stereo unspecified) shows Ratio equal to 0.4
